Target: Human immunodeficiency virus type 1 reverse transcriptase (Human immunodeficiency virus 1)
Assay: Compounds were evaluated for anti-RT activity by MTT dose and %protection was reported at 13 days of culture
Type: functional
MEASURED ENDPOINT: Protection
Give me the value, and tack the unit on after it.

The examples below pair each entry with its known result.
COMPOUND	Protection
Cc1cn([C@H]2C[C@H](N=[N+]=[N-])[C@@H](COP(=O)(O)OCCO[C@H]3O[C@H](CO)[C@@H](O)[C@H](O)[C@@H]3O)O2)c(=O)[nH]c1=O	7%
CCCCCCCCCCCCCCCCOP(=O)(OCCO[C@H]1O[C@H](CO)[C@@H](O)[C@H](O)[C@@H]1O)OCC1OC(n2cc(C)c(=O)[nH]c2=O)CC1N=[N+]=[N-] (some centres undefined)	0%
Cc1cn([C@H]2C[C@H](N=[N+]=[N-])[C@@H](COP(=O)(O)OC[C@H]3OC(O)[C@H](O)[C@@H](O)[C@@H]3O)O2)c(=O)[nH]c1=O (some centres undefined)	0%

Next up:
Lab note: CCCCCCCCCCCCCCCCOP(=O)(OC[C@H]1OC(O)[C@H](O)[C@@H](O)[C@@H]1O)OC[C@H]1OC(n2cc(C)c(=O)[nH]c2=O)C[C@@H]1N=[N+]=[N-] (some centres undefined) gave Protection of 28%

----------
Test system: CCRF-CEM
Test: Concentration required to reduce the viability of uninfected cells (CEM-CL13) by 50% on day 22.
Assay type: functional
Conditions: Homo sapiens, 528 h, read-out: CD50 (the source's name)
Readings of CC50 for the listed compounds
Report the figure in µM without appending any unit label.

These solved cases illustrate the format of a correct answer.
COMPOUND	RECORDED NUMBER
Cc1cn([C@H]2C[C@H](N=[N+]=[N-])[C@@H](COP(=O)(O)OC[C@H]3OC(O)[C@H](O)[C@@H](O)[C@@H]3O)O2)c(=O)[nH]c1=O (stereo partly drawn)	35
Cc1cn([C@H]2C[C@H](N=[N+]=[N-])[C@@H](CO)O2)c(=O)[nH]c1=O	22

// CC50 lookup, compound = Cc1cn([C@H]2C[C@H](N=[N+]=[N-])[C@@H](COP(=O)(O)OC[C@H]3OC(O)[C@@H](O)[C@@H](O)[C@@H]3O)O2)c(=O)[nH]c1=O (stereo partly drawn) , result: 24

Ref: ChEMBL document CHEMBL1125259
